tested on: P. aeruginosa; assay: Time-kill assay of GN lysin activity; format: cell-based, Pseudomonas aeruginosa; settings: CAA/HuS; lysin 10 μg/mL; T = 0 7.8; buffer control 7.7
metric.name: Log10 CFU/mL T = l hr (Log10 CFU/mL)

molecule | metric.name | reported.measurement
GN156: Modified GN4, addition of N-terminal peptide GPRRPRRPGRRAPV, SEQ ID NO: 6 (protein) GPRRPRRPGRRAPVMRTSQRGIDLIKSFEGLRLSAYQDSVGVWTIGYGTTRGVTRYMTITVEQAERMLSNDIQRFEPELDRLAKVPLNQNQWDALMSFVYNLGAANLASSTLLKLLNKGDYQGAADQFPRWVNAGGKRLDGLVKRRAAERALFLEPLS | Log10 CFU/mL T = l hr | 5.7
GN150: Native lysin, WP_034684053.1/VanY, SEQ ID NO: 19 (protein, listed as Acinetobacter sp.) MSFKLGKRSLSNLEGVHPDLIKVVKRAIELTECDFTVTEGLRSKERQAQLLKEKKTTTSNSRHLTGHAVDLAAWVNNTVSWDWKYYYQIADAMKKAASELNVSIDWGGDWKKFKDGPHFELTWSKYPIKGAS | Log10 CFU/mL T = l hr | 6.0

Sourced from patent US20220160843A1
